Listed here: compounds with reported MIC for Klebsiella pneum. 8085.

chemical structure: O=C(O)c1cn(C2CC2)c2cc([N+](=O)[O-])c(Cl)cc2c1=O
MIC [µg/mL]: 32
//
chemical structure: CN(C)n1cc(C(=O)O)c(=O)c2ccccc21
MIC [µg/mL]: 64
//
chemical structure: O=C(O)c1cn(C2CC2)c2cc([N+](=O)[O-])ccc2c1=O
MIC [µg/mL]: 0.06
//
chemical structure: O=C(O)c1cn(C2CC2)c2cccc([N+](=O)[O-])c2c1=O
MIC [µg/mL]: 128
